# TEST SYSTEM: PBP4 (Escherichia coli, UniProt P24228)
Recorded IC50 values for a group of compounds are listed next.
Provide the reading as a plain figure in µM.

{"MOLECULE SMILES": "C[C@@H](O)[C@H]1C(=O)N2C(C(=O)O)=C([C@H]3CCCO3)S[C@H]12", "TEST SYSTEM": "PBP4 (Escherichia coli, UniProt P24228)", "IC50 (µM)": 2}
{"MOLECULE SMILES": "CC1=C(C(=O)O)N2C(=O)[C@@H](NC(=O)[C@H](N)c3ccccc3)[C@H]2SC1", "TEST SYSTEM": "PBP4 (Escherichia coli, UniProt P24228)", "IC50 (µM)": 68}

PBP4 (Escherichia coli, UniProt P24228) assay, compound "CCN1CCN(C(=O)N[C@@H](C(=O)N[C@@H]2C(=O)N3[C@@H]2SC(C)(C)[C@@H]3C(=O)O)c2ccccc2)C(=O)C1=O" , recorded IC50 = 25
